# Tested on: MDA-MB-231
# EXPERIMENTAL DETAILS: Antiproliferative activity, MTT assay
# Type: cell-based, human
# COND: Homo sapiens, MDA-MB-231; MTT, 72 h; standard deviations within 50%
pIC50: −log10 of the molar value.
The following compounds are shown together with reported pIC50 values.
ASSAY READOUT: pIC50

| STRUCTURE | OBS VALUE |
| --- | --- |
| N[C@@H](CCCCNC(=O)Nc1ccc(-c2ccc3c(N4CCOCC4)nc(N4CCOCC4)nc3c2)cc1)C(=O)O | 4.62 |
| COC(=O)c1ccc(NC(=O)Nc2ccc(-c3ccc4c(N5CCOCC5)nc(N5CCOCC5)nc4c3)cc2)cc1 | 5.39 |
| O=C(Nc1ccc(F)cc1)Nc1ccc(-c2ccc3c(N4CCOCC4)nc(N4CCOCC4)nc3c2)cc1 | 4.85 |
| O=C(Nc1ccc(-c2ccc3c(N4CCOCC4)nc(N4CCOCC4)nc3c2)cc1)Nc1ccc([N+](=O)[O-])cc1 | 5.06 |
| O=C(Nc1ccc(-c2ccc3c(N4CCOCC4)nc(N4CCOCC4)nc3c2)cc1)Nc1cccc2ccccc12 | 4.96 |
